System: MOLT-4 leukemia
assay.info: NCI tumour cell line growth inhibition, 48 h
endpoint: GI50

input: What does the record list as GI50 for O=C(NCCN1CCOCC1)Nc1nc2ccc(Sc3nnc4ccc(-c5ccc(F)cc5)nn34)cc2s1 ?
output: > 100000 nM

input: For CCCCCCCC(=O)SCC/C=C/[C@@H]1CC(=O)NCc2cccc(n2)C2=N[C@@](C)(CS2)C(=O)N[C@@H](C(C)C)C(=O)O1 , what is its reported GI50?
output: 70.2 nM

input: Look up GI50 for this compound: Cc1cc(C)nc(NS(=O)(=O)c2ccc(Nc3nc4nc(NCc5ccccc5)nc(-c5ccc(O)cc5)c4c(=O)[nH]3)cc2)n1
output: 2380 nM

input: Can you look up the measured GI50 of COc1ccc(C(=O)OC2C(OC3C(O)COC(O[C@H]4C[C@H]5[C@@H]6CC=C7C[C@@H](O)CC[C@]7(C)[C@H]6CC[C@]5(C)[C@H]4[C@H](C)C(=O)CCC(C)C)C3OC(=O)C(C)C)OCC(O)C2O)cc1 (some centres not stated) for me?
output: 6.49 nM

input: Could you share which GI50 value was measured for OCCNC(=S)Nc1ccc(-c2nc(N3C[C@H]4CC[C@@H](C3)O4)c3cccn3n2)cc1 ?
output: 90 nM

input: Find the recorded GI50 belonging to COc1ccccc1CN=C1NC(=O)/C(=C/c2ccc3ncccc3c2)S1 and report it.
output: 8170 nM

input: Request the reported GI50 associated with Cc1cc(N2CCCCC2)nc(NCc2cc(Nc3ccnc4cc(Cl)ccc34)ccc2F)n1
output: 1670 nM

---

Kindly state TGI for each of the entries shown.
Test system: HCT-15 colon
assay.info: NCI tumour cell line growth inhibition, 48 h

input: Would you mind telling me what TGI value was observed for COc1ccc2c(c1)C(=O)c1c-2n(CCCCl)c(=O)c2cc([N+](=O)[O-])ccc12 ?
output: > 100 µM

input: Would you mind telling me what TGI value was observed for CCOC(=O)C1Nc2ccc([N+](=O)[O-])cc2[C@H]2OCC[C@@H]12 (stereo partly specified) ?
output: > 100 µM

input: Recorded TGI for CC/C=C\C[C@H](O)C/C=C1/C(=O)C=C[C@@H]1C/C=C\CCCC(=O)OCCS(=O)(=O)c1ccccc1 , please?
output: 11.4 µM

input: Request the reported TGI associated with CSc1n[nH]c2c1c(C)nn2-c1ccccc1
output: > 100 µM

input: What value of measured TGI is listed for Clc1cc2nc[nH]c2cc1Cl ?
output: > 100 µM

input: Name the reported TGI value associated with the molecule COc1ccc(OC)c2sc(N3C(=O)/C(=C/c4ccc(SC)cc4)N=C3c3ccccc3)nc12
output: > 100 µM

input: # get_value(readout='TGI', item= Cn1cc(S(=O)(=O)NC(=O)Nc2ccc(Cl)cc2)c(=O)c2ccc(Cl)cc21 )
output: > 100 µM

input: Please report the recorded TGI for CSc1ccc(/C=C/C(=O)c2nc3ccccc3[nH]2)cc1 .
output: 40.6 µM

input: Requested read-out: TGI. Entry: COc1ccc(C(=O)OC2C(OC3C(O)COC(O[C@H]4C[C@H]5[C@@H]6CC=C7C[C@@H](O)CC[C@]7(C)[C@H]6CC[C@]5(C)[C@H]4[C@H](C)C(=O)CCC(C)C)C3OC(=O)C(C)C)OCC(O)C2O)cc1 (stereo partly specified)
output: 3.92 µM

input: Which measured TGI value corresponds to Cc1ccc([N+]2=NC(c3ccc([N+](=O)[O-])cc3)=NN(c3ccccc3)C2)cc1 ?
output: > 100 µM

input: Any idea what TGI was measured for Cc1cc(Cl)ccc1NC(=O)C1C(=O)C(=O)N(c2ccc(Cl)cc2C)C1=O (stereo unspecified) ?
output: > 100 µM

input: // lookup TGI for COc1cc(C(=O)O)cc2c1[nH]c1ccccc12
output: > 25 µM

input: If you can, please state the reported TGI value of Clc1ccc(C2ON=C(c3ccccc3)N2C23CC4CC(CC(C4)C2)C3)cc1Cl (stereo unspecified) .
output: > 10 µM

input: # get_value(readout='TGI', item= CC12CCC(=O)N1c1cc([N+](=O)[O-])ccc1N2 (stereo unspecified) )
output: > 100 µM

input: Please report the recorded TGI for COc1ccc2c3c(ccc2c1)NC(C(=O)O)CC3 (stereo unspecified) .
output: > 100 µM

input: Could you share which TGI value was measured for O=C(O)COc1cc(-c2ccccc2F)nc2cc3c(cc12)OCO3 ?
output: > 100 µM

input: Look up TGI for this molecule: Cc1cc(N(CCC#N)CCC#N)ccc1/C=C(\NC(=O)/C=C/c1ccccc1)NC(=O)Nc1ccccc1C
output: > 100 µM

input: Quick one: TGI for O=C(NCCN1CCOCC1)Nc1nc2ccc(Sc3nnc4ccc(-c5ccc(F)cc5)nn34)cc2s1 ?
output: > 100 µM

input: For COc1ccccc1CN=C1NC(=O)/C(=C/c2ccc3ncccc3c2)S1 , what is its reported TGI?
output: > 25 µM

input: Look at this molecule and give its reported TGI. [N-]=[N+]=CC(=O)OC1CCc2ccccc21 (stereo unspecified)
output: > 100 µM

input: For the molecule shown here, CC[C@]1(Cc2ccc(OC)c(OC)c2)C=[N+]([O-])O[C@H](OC2CCCCC2c2ccccc2)[C@@H]1OC(C)=O (stereo partly specified) , give the reported TGI.
output: > 100 µM

Values compiled from PubChem BioAssay (NCI).
